The reported numbers originate from patent US20240200003A1.

System: Human lung adenocarcinoma A549 cells
Test: XTT cell viability / IC50 of anti-cancer drugs, A549 cells in 3D lung tumor model
Assay type: cell-based
Details: Homo sapiens, A549, 72 h, A549 cells in TissueSpec® Lung ECM Hydrogel (3D), 72 h drug
Recorded measurements of IC50, one per entry
Measured Property: IC50 (µM)

[[record]]
compound = "COc1cc([C@@H]2c3cc4c(cc3[C@@H](O[C@@H]3O[C@@H]5CO[C@@H](C)O[C@H]5[C@H](O)[C@H]3O)[C@H]3COC(=O)[C@H]23)OCO4)cc(OC)c1O [Etoposide]"
system_tested = "Human lung adenocarcinoma A549 cells"
result_value = 16.6

[[record]]
compound = "C#Cc1cccc(Nc2ncnc3cc(OCCOC)c(OCCOC)cc23)c1"
system_tested = "Human lung adenocarcinoma A549 cells"
result_value = 134

